Just for reference, PubChem BioAssay (NCI) is where these values come from.

tested on: EKVX NSCLC; assay: NCI-60 one-dose screen, 48 h (100 = growth as untreated, 0 = no growth, -100 = all killed); conditions: 10 µM unless noted
Compounds without any hit were thinned out: in the full panel of roughly 83,000, 20% have a hit.
// label = label 1 if growth is not less than 80%, otherwise label 0

query: Given the entry CCCCn1c(=O)c(C2CNC(=O)c3ccccc3N2)cc2ccccc21 (stereo not given) , answer whether its growth meets or surpasses 80%.
result: label 1

query: Given the entry CC1(C)OC2COC3(C(=O)O)OC(C)(C)OC3C2O1 (stereo not given) , answer whether its growth meets or surpasses 80%.
result: label 1

query: Given the entry `NC(=O)c1ccc2c(c1)OCO2` , answer whether its growth meets or surpasses 80%.
result: label 1

query: Given the entry `C=C1C(=O)O[C@H]2[C@H]1CC/C(COC(=O)NCCc1ccc(Br)cc1)=C\CC[C@@]1(C)O[C@@H]21` , answer whether its growth meets or surpasses 80%.
result: label 0

query: Given the entry CCCCOc1nc2c(C)cccc2cc1C1CNC(=O)c2ccccc2N1 (stereo not given) , answer whether its growth meets or surpasses 80%.
result: label 0

query: Given the entry `O=C1Nc2cc(Cl)ccc2Oc2cc(Oc3ccccc3)ccc21` , answer whether its growth meets or surpasses 80%.
result: label 0

query: Given the entry `COc1cc(-n2nc(C(=O)Nc3ccc(C(=O)O)cc3)nc2-c2ccccc2)cc(OC)c1OC` , answer whether its growth meets or surpasses 80%.
result: label 0

query: Given the entry `COc1cc(-c2csc(NC(=O)c3cc(C(F)(F)F)cc(C(F)(F)F)c3)n2)cc(OC)c1OC` , answer whether its growth meets or surpasses 80%.
result: label 0

query: Given the entry `C=CC(=O)N[C@H](/C=C/C(=O)OCC)Cc1ccc(-c2cc(Cl)cc(Cl)c2)cc1` , answer whether its growth meets or surpasses 80%.
result: label 1
